# Measured On: Mitogen-activated protein kinase 7 (Homo sapiens)
# Measurement Protocol: ERK5 transactivation activators in reporter cells, primary screen, cell-based, HTS (AID 1508626);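 further: luciferase driven by Gal4-ERK5 fusion binding five Gal4 sites before minimal TATA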
# Condition Info: HeLa Gal4-ERK5 transactivation, 18 h, at 5 µM, stronger effect = higher value
Active and inactive are the calls of the source.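 How the source made its calls: active means luciferase signal above three times the same-plate solvent-only control wells; inactive means the rest.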
Result Type: luciferase signal

compound_string=CN(N=O)C(=O)N[C@@H]1[C@@H](O)[C@H](O)[C@@H](CO)O[C@@H]1O result_type="luciferase signal" obs_value="120 AU (inactive)"
compound_string=C/C=C(/C)C(=O)O[C@@H]1c2c(ccc3ccc(=O)oc23)OC(C)(C)[C@@H]1OC(C)=O result_type="luciferase signal" obs_value="56 AU (inactive)"
compound_string=CC1=C(/C=C/C(C)=C/C=C/C(C)=C/C=C/C=C(C)/C=C/C=C(C)/C=C/C2=C(C)CCCC2(C)C)C(C)(C)CCC1 result_type="luciferase signal" obs_value="36 AU (inactive)"
compound_string=CCCC(=O)Nc1ncnc2c1ncn2[C@@H]1O[C@@H]2COP(=O)(O)O[C@H]2[C@H]1OC(=O)CCC result_type="luciferase signal" obs_value="68 AU (inactive)"

---

# Measurement Protocol: phospholipid biosynthesis inhibitors in animal cells, primary screen, cell-based, LOPAC library, screen 4 (AID 1347384)
# Condition Info: phospholipid biosynthesis inhibition screen, at 10 µM
Activity calls are given as the source filed them. No rule for the calls is given here.
Outcomes: active, inactive

compound="C[C@]12CC[C@@H]3c4ccc(O)cc4C[C@@H](CCCCCCCCCS(=O)CCCC(F)(F)C(F)(F)F)[C@H]3[C@@H]1CC[C@@H]2O (some centres not stated)" category=inactive
compound=CCN(CC)CCCN(c1ccccc1)C1Cc2ccccc2C1 category=inactive
compound="CCn1ccnc1CC1COc2ccccc2O1 (configuration not stated)" category=inactive
compound="COC(=O)C1=C(C)NC(C)=C(C(=O)OC(C)(C)CN(C)CCC(c2ccccc2)c2ccccc2)C1c1cccc([N+](=O)[O-])c1 (configuration not stated)" category=active
compound=CN[C@H](CC(C)C)C(=O)N[C@H]1C(=O)N[C@@H](CC(N)=O)C(=O)N[C@H]2C(=O)N[C@H]3C(=O)N[C@H](C(=O)N[C@H](C(=O)O)c4cc(O)cc(O)c4-c4cc3ccc4O)[C@H](O)c3ccc(c(Cl)c3)Oc3cc2cc(c3O[C@@H]2O[C@H](CO)[C@@H](O)[C@H](O)[C@H]2O[C@H]2C[C@](C)(N)[C@H](O)[C@H](C)O2)Oc2ccc(cc2Cl)[C@H]1O category=inactive
compound=COC(=O)C1=C(C)NC(C)=C(C(=O)OC)C1c1ccccc1[N+](=O)[O-] category=inactive
compound="O=C(O)COCCN1CCN(C(c2ccccc2)c2ccc(Cl)cc2)CC1 (configuration not stated)" category=inactive

---

# Measurement Protocol: HCT116 colon cancer cell growth inhibition, primary screen, CellTiter-Glo luminescence, NPC library (AID 1117342)
# Condition Info: at 20 µM (top of the series)
Activity calls are given as the source filed them.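 Rule for the calls: active = compounds that lower survival of HCT116 colon cancer cells in the luminescence readout, no numeric limit stated; inactive = the rest.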
Result Type: inhibition of viability

compound=O=C(Oc1cccc2cccnc12)c1ccccc1 obs_value="27.1% (inactive)"
compound=C#C[C@]1(OC(C)=O)CC[C@H]2[C@@H]3CCC4=C/C(=N/O)CC[C@@H]4[C@H]3CC[C@@]21CC obs_value="99.1% (active)"
compound=CCN(CC)CCNC(=O)c1c(C)[nH]c(/C=C2\C(=O)Nc3ccc(F)cc32)c1C obs_value="110% (active)"
compound=Clc1cc(Cl)c(OCC#CI)cc1Cl obs_value="92% (active)"
compound=COc1cccc2c1C(=O)c1c(O)c3c(c(O)c1C2=O)C[C@@](O)(C(C)=O)C[C@@H]3O[C@H]1C[C@H](N)[C@H](O)[C@H](C)O1 obs_value="88.6% (active)"
compound=COc1ccc2cc([C@H](C)C(=O)O)ccc2c1 obs_value="-1.1% (inactive)"
compound="COCCCOc1ccnc(CS(=O)c2nc3ccccc3[nH]2)c1C (centres undefined)" obs_value="20.2% (inactive)"
compound=COC(=O)[C@@H](N)Cc1ccc(O)c(O)c1 obs_value="8.3% (inactive)"
compound=CN1CCN(c2c(F)cc3c(=O)c(C(=O)O)cn4c3c2OCN4C)CC1 obs_value="1.5% (inactive)"
compound=O=c1cc[nH]c(=O)[nH]1 obs_value="1% (inactive)"
compound=C[C@@H](O)[C@H]1C(=O)N2C(C(=O)O)=C(SCCN=CN)C[C@H]12 obs_value="1.15% (inactive)"
compound=Cn1ccc2cc3c(cc21)CCN3C(=O)Nc1cccnc1 obs_value="24.2% (inactive)"
compound=COc1ccc(/C=N/NC(=O)c2ccncc2)cc1OC obs_value="11.9% (inactive)"
compound=CC(=O)NCc1c(I)c(NC(C)=O)c(I)c(C(=O)O)c1I obs_value="-14.3% (inactive)"
compound=C[N+]1(C)CCC(=C(c2ccccc2)c2ccccc2)CC1 obs_value="7.97% (inactive)"
compound=CC(=O)SC[C@@H](C)C(=O)N1CCC[C@H]1C(=O)N[C@@H](Cc1ccccc1)C(=O)O obs_value="2.4% (inactive)"
compound=Nc1c(CC(=O)O)cccc1C(=O)c1ccc(Br)cc1 obs_value="-13.5% (inactive)"
compound="CCC1NC(=O)c2cc(S(N)(=O)=O)c(Cl)cc2N1 (centres undefined)" obs_value="-5.7% (inactive)"
compound="CC(C)NCC(O)COc1cccc2[nH]ccc12 (centres undefined)" obs_value="-13.4% (inactive)"
compound=NCCNC(=O)c1ccc(Cl)cn1 obs_value="-6.5% (inactive)"
compound=CC(C)(CO)[C@@H](O)C(=O)NCCCO obs_value="4.3% (inactive)"
compound=CCCCc1cc2ccccc2c(OCCN(C)C)n1 obs_value="22.3% (inactive)"
compound=CCCCN1C[C@H](O)[C@@H](O)[C@H](O)[C@H]1CO obs_value="-0.5% (inactive)"
compound="CN1C(=O)CC(c2ccccc2)C1=O (centres undefined)" obs_value="-5.7% (inactive)"
